- Tested on: HEK293
- assay details: Antiproliferative activity against human HEK293 cells incubated with 3000 cells per well after 48 hrs by MTT assay
- Type: cell-based
- stated conditions: HEK293, 48 h
readout kind: EC50 (µM)
I only need the number, in µM, no unit after it.

*Q* Quick one: EC50 of COc1ccc(S(=O)(=O)n2c3ccccc3c3nnsc32)cc1 ?
*A* 12.3

----------
- Tested on: HT-29
- assay details: Antiproliferative activity against human HT-29 cells after 96 hrs by MTT assay
- Format: functional, cell-based
- stated conditions: HT-29, 96 h
readout kind: EC50 (µM)
Entry rule: numbers only, all in µM.

*Q* Look up EC50: O=C(c1ccc(Cl)cc1)n1c2ccccc2c2nnsc21
*A* 52.3

*Q* I have this molecule here, Clc1ccc2[nH]c3snnc3c2c1 , and I need its recorded EC50.
*A* 33.8

*Q* Which measured EC50 value corresponds to COc1ccc(S(=O)(=O)n2c3ccccc3c3nnsc32)cc1 ?
*A* 6.97

// data source = ChEMBL document CHEMBL3751788
